A short record of MIC observed with Staph. aureus S18713 follows.
Please state the figure in µg/mL; there is no need to write the unit.

Solved entries:
In [3]: df
Out[3]:
                            chemical_string  measurement_label  quantity_unit  recorded_result
0  CC(=O)C(=O)Nc1ccc(-c2ccc(C(=O)N[C@@H](C(=O)N[C@@H]3C(=O)N4[C@@H]3SC(C)(C)[C@@H]4C(=O)O)c3ccc(O)cc3)c(=O)[nH]2)cc1                MIC          µg/mL               25
1  CC1(C)S[C@@H]2[C@H](NC(=O)[C@H](NC(=O)c3ccc(-c4ccc(NC(=O)Cc5ccccc5)cc4)[nH]c3=O)c3ccc(O)cc3)C(=O)N2[C@H]1C(=O)O                MIC          µg/mL               50

Could you now look at the following compound, please?
Task: State its MIC on Staph. aureus S18713: CC1(C)S[C@@H]2[C@H](NC(=O)[C@H](NC(=O)c3ccc(-c4ccc(NC(=O)CC#N)cc4)[nH]c3=O)c3ccc(O)cc3)C(=O)N2[C@H]1C(=O)O
Output: 100

----------
MIC overview
test system: Staph. aureus S18713

Solved entries:
compound	MIC
CC1(C)S[C@@H]2[C@H](NC(=O)[C@H](NC(=O)c3ccc(-c4ccc(NC(=O)CSCC#N)cc4)[nH]c3=O)c3ccc(O)cc3)C(=O)N2[C@H]1C(=O)O [Example 9]	> 50 µg/mL
CC1(C)S[C@@H]2[C@H](NC(=O)[C@H](NC(=O)c3ccc(-c4ccc(NC(=O)Cc5nn[nH]n5)cc4)[nH]c3=O)c3ccc(O)cc3)C(=O)N2[C@H]1C(=O)O [Example 6]	> 50 µg/mL

Task: State its MIC on Staph. aureus S18713: CC1(C)S[C@@H]2[C@H](NC(=O)[C@H](NC(=O)c3ccc(-c4ccc(NC(=O)CSCC(F)(F)F)cc4)[nH]c3=O)c3ccc(O)cc3)C(=O)N2[C@H]1C(=O)O [Example 8]
Output: > 50 µg/mL
